- Assay method text: Solubility of the Hydrobromide in water (visual, confirmed by HPLC assay of a saturated solution)
- Type: physicochemical
- Measurement conditions: thermodynamic from solid, product of Example 3
Test readout: solubility
Answer shape: numeric part, then the unit.

Q) Entry Br.CN(CCOc1ccc(CC2SC(=O)NC2=O)cc1)c1ccccn1 (stereo not shown) [Hydrobromide] needs its solubility filled in; supply it.
A) 6000 µg/mL
